# system_tested: human GLP-1 receptor (human, UniProt P43220 24-463)
# protocol_description: cell-based or functional assay
Classification scheme (hGLP1R GTPgS Rel EC50): c1: < 0.4 nM; c2: ≥ 0.4 nM and < 0.5 nM; c3: ≥ 0.5 nM

binder	class_name
YXEGTFTSDYSIXLDKKAQXAFIEYLIAGGPSSGAPPPS (Aib2, αMeL13, K17 conjugated to (2-[2-(2-Amino-ethoxy)-ethoxy]-acetyl)2-(γ-Glu)-CO-(CH2)18-CO2H (printed "(CH2)1s"), Aib20, C-terminal amide (NH2)) [Example 324]	c2
XXEGTFTSDYSIXLDKKAQXAFIXYLIAGGPSSGAPPPS (D-Tyr1, Aib2, αMeL13, K17 conjugated to (2-[2-(2-Amino-ethoxy)-ethoxy]-acetyl)2-(γ-Glu)-CO-(CH2)18-CO2H, Aib20, D-Glu24, C-terminal amide (NH2)) [Example 352]	c3
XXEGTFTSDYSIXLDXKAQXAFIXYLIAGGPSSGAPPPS (D-Tyr1, Aib2, αMeL13, Orn16, K17 conjugated to (2-[2-(2-Amino-ethoxy)-ethoxy]-acetyl)2-(γ-Glu)-CO-(CH2)16-CO2H, Aib20, D-Glu24, C-terminal amide (NH2)) [Example 363]	c3
XXEGTXTSDYSIXLDKKAQXEFIEYLIAGGPSSGAPPPS (D-Tyr1, Aib2, αMeF6, αMeL13, K17 conjugated to (2-[2-(2-Amino-ethoxy)-ethoxy]-acetyl)2-(γ-Glu)-CO-(CH2)18-CO2H, Aib20, C-terminal amide (NH2)) [Example 345]	c3
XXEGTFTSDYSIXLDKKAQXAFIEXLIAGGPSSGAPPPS (D-Tyr1, Aib2, αMeL13, K17 conjugated to (2-[2-(2-Amino-ethoxy)-ethoxy]-acetyl)2-(γ-Glu)-CO-(CH2)16-CO2H, Aib20, αMeY25, C-terminal amide (NH2)) [Example 376]	c1
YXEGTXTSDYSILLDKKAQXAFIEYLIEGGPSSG (Aib2, αMeF6, K17 conjugated to (2-[2-(2-Amino-ethoxy)-ethoxy]-acetyl)2-(γ-Glu)-CO-(CH2)16-CO2H, Aib20, C-terminal amide (NH2)) [Example 301]	c2
XXEGTFTSDYSIXLDEKAQXAFIEXLIAGGPSSGAPPPS (D-Tyr1, Aib2, αMeL13, K17 conjugated to (2-[2-(2-Amino-ethoxy)-ethoxy]-acetyl)2-(γ-Glu)-CO-(CH2)18-CO2H, Aib20, αMeY25, C-terminal amide (NH2)) [Example 381]	c1
XXEGTFTSDYSIXLDXKAQXEFIEYLIAGGPSSG (D-Tyr1, Aib2, αMeL13, Orn16, K17 conjugated to (2-[2-(2-Amino-ethoxy)-ethoxy]-acetyl)2-(γ-Glu)-CO-(CH2)18-CO2H, Aib20, C-terminal amide (NH2)) [Example 370]	c2
YXEGTFTSDYSIXLDKKAQXEFIEYLIAGGPSSG (Aib2, αMeL13, K17 conjugated to (2-[2-(2-Amino-ethoxy)-ethoxy]-acetyl)2-(γ-Glu)-CO-(CH2)16-CO2H, Aib20, C-terminal amide (NH2)) [Example 306]	c1
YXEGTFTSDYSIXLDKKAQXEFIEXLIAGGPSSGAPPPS (Aib2, αMeL13, K17 conjugated to (2-[2-(2-Amino-ethoxy)-ethoxy]-acetyl)2-(γ-Glu)-CO-(CH2)18-CO2H, Aib20, αMeY25, C-terminal amide (NH2)) [Example 367]	c1
